Tested on: A549
Assay Overview: NCI tumour cell line growth inhibition, 48 h
The source made the active and inactive calls. Cut-off read from the data, not from the text of the source: active = GI50 up to about 1.1 µM and inactive = higher.
Entries and their GI50 values follow.

Worked set:
INSERT INTO results (molecule, recorded_metric, result_value) VALUES
  ('Cn1c2ccc(F)cc2c2ccc3c(c21)C(=O)C=CC3=O', 'GI50', '> 64.1 µM (inactive)'),
  ('O=C1NCN(c2ccccc2)C12CCN(CCCN1CCN(CCOC(c3ccccc3)c3ccccc3)CC1)CC2', 'GI50', '4.14 µM (inactive)'),
  ('NNC(=O)/C(=C/c1cccc([N+](=O)[O-])c1)NC(=O)c1ccccc1', 'GI50', '> 100 µM (inactive)'),
  ('Cc1ccc(/C=C/C(=O)C(C)C)cc1', 'GI50', '> 100 µM (inactive)'),
  ('N#Cc1cnn2cc[nH]c12', 'GI50', '> 100 µM (inactive)');

Query: Hello, please tell me recorded GI50 for this one: Cc1ccc(Nc2nc(=O)c3c4ccccc4n(C(=O)OC(C)(C)C)c3s2)cc1
Result: 28.8 µM (inactive)

Query: Output GI50 of CS(=O)(=O)OC1CCC2(C#N)CCC1C2=O (stereo unspecified)
Result: > 100 µM (inactive)

Query: Report GI50, nothing else, for this molecule: c1ccc2c(c1)[nH]c1c3ccccc3sc21
Result: 77.4 µM (inactive)

Query: Assign GI50 to the following record: COc1ccc2/c(=C/c3ccc(N(C)C)cc3)c3cc(-c4ccccc4)[n+](C)n3c2c1
Result: 0.261 µM (active)

Query: Please report GI50 for the following molecule: COc1cc(C2CC(C)(O)Oc3cc4c(cc32)OCO4)cc(OC)c1OC (stereo unspecified)
Result: 2.49 µM (inactive)

Query: Please supply the value of reported GI50 for the item CCOC(=O)C1=C(C)N2CCOC2(C)C(C(=O)OC)C1c1cccc(Cl)c1 (stereo unspecified)
Result: > 100 µM (inactive)

Query: Specify GI50 for O=c1c2ccccc2nc(N/N=C/c2ccc([N+](=O)[O-])cc2)n1-c1ccccc1 and stop.
Result: 15.6 µM (inactive)

Query: Retrieve GI50 measured for C[C@]12CC[C@@H]3c4cc(OCC(F)(F)F)c(O)cc4/C(=N/O)C[C@H]3[C@@H]1CC[C@@H]2O and print it.
Result: 0.0372 µM (active)

Query: Tell me its GI50 given N=C(N)N/N=C/c1cc(Cl)cc(Cl)c1O as the entry.
Result: > 100 µM (inactive)

Query: Identify measured GI50 associated with NC(=S)N/N=C(\Cc1nc2ccc(Cl)cc2nc1O)C(=O)Nc1ccc(Cl)cc1
Result: > 100 µM (inactive)

Query: Look up and state reported GI50 for CC1(C)CN=C(Nc2ccc(F)c(Cl)c2)S1
Result: > 100 µM (inactive)

Query: Supply reported GI50 belonging to this molecule: CC(=O)Nc1ccc(C2=N/C(=C\c3ccc(Cl)cc3)C(=O)O2)cc1
Result: > 100 µM (inactive)

Query: Give GI50 for the following molecule: C[C@H](CCC(=O)NCC(=O)O)[C@H]1CC[C@H]2[C@@H]3[C@H](O)C[C@@H]4C[C@H](O)CC[C@]4(C)[C@H]3CC[C@]12C
Result: > 100 µM (inactive)

Query: Consider the molecule Cc1cc(C)c(-n2[nH]c(=O)n(C)c2=O)c(C)c1 and give its recorded GI50.
Result: > 100 µM (inactive)

Query: Please supply the value of reported GI50 for the item NCC(O)CNC(=O)c1ccc(-c2ccc(-c3ccc(C(=O)NCC(O)CN)cc3)o2)cc1 (stereo unspecified)
Result: 37.4 µM (inactive)

Query: Note GI50 for the molecule shown: Clc1cccc(C2SCc3nc4ccccc4n32)c1Cl (stereo unspecified)
Result: 17.9 µM (inactive)
